- Experimental System: CDK2/CyclinA (Homo sapiens)
- Construct: GST
- Protocol Details: LanthaScreen Eu Kinase Binding Assay, CDK2
- Condition Context: tracer 236, read-out: CDK2 (activity range), Kd
Parameter Measured: Kd

Some entries whose results are on file:
>  <Compound>
NS(=O)(=O)Cc1cccc(Nc2ncnc(N3CCC[C@@H]3CN3CCCC3)n2)c1 [Compound B31]

>  <Parameter Measured>
Kd

>  <Recorded Value>
> 10000 nM

$$$$
>  <Compound>
NS(=O)(=O)Cc1cccc(Nc2ncnc(N3CCc4ncsc4C3)n2)c1 [Compound B45]

>  <Parameter Measured>
Kd

>  <Recorded Value>
< 100 nM

$$$$
>  <Compound>
NS(=O)(=O)Cc1cccc(Nc2ncnc(N3CCC[C@H]3CO)n2)c1 [Compound B25]

>  <Parameter Measured>
Kd

>  <Recorded Value>
> 10000 nM

$$$$
>  <Compound>
C[C@H]1CCCN1c1ncnc(Nc2cccc(CS(N)(=O)=O)c2)n1 [Compound B53]

>  <Parameter Measured>
Kd

>  <Recorded Value>
1000 to 10000 nM

$$$$
>  <Compound>
NS(=O)(=O)Cc1cccc(Nc2ncnc(N3CCC[C@@H]3c3ccccc3)n2)c1 [Compound B34]

>  <Parameter Measured>
Kd

>  <Recorded Value>
1000 to 10000 nM

$$$$

Consider the compound NS(=O)(=O)Cc1cccc(Nc2ncnc(N3CCC[C@@H]3CO)n2)c1 [Compound B24] and give its measured Kd.
> 10000 nM

Do the same for NS(=O)(=O)Cc1cccc(Nc2ncnc(N3CCC[C@@H]3COCc3ccccc3)n2)c1 [Compound B30] please
> 10000 nM

Can you handle NS(=O)(=O)Cc1cccc(Nc2ncnc(N3CCCc4ccccc43)n2)c1 [Compound B42] next?
100 to 1000 nM

Another: COC[C@H]1CCCN1c1ncnc(Nc2cccc(CS(N)(=O)=O)c2)n1 [Compound B17]
1000 to 10000 nM

Quick one: COC(=O)[C@H]1CCCN1c1ncnc(Nc2cccc(CS(N)(=O)=O)c2)n1 [Compound B21]
1000 to 10000 nM

Now consider NS(=O)(=O)Cc1cccc(Nc2ncnc(N3CCC[C@@H]3C(F)(F)F)n2)c1 [Compound B54] and answer again.
1000 to 10000 nM
